# Tested On: Mouse histone methyltransferase G9a (969-1263) (Mus musculus)
# Construct: The 6His-sumo mG9a (969-1263) protein was purified using the following procedure; 6His-sumo (cleaved yes); made in house; host or cells: Escherichia coli BL21 (DE3)
# Sequence (Q9Z148 969-1263): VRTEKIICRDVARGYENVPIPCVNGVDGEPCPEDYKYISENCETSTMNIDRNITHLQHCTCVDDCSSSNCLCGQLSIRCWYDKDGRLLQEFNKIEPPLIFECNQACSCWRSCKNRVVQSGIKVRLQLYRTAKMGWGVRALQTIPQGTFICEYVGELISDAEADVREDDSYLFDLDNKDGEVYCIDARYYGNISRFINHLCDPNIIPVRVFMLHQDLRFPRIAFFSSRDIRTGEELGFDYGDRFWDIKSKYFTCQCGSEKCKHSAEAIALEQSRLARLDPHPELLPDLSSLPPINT
# Assay Method Text: MALDI-TOF methylation study of G9a inhibition
# Assay type: biochemical
# Condition Description: inhibitors at 5 μM concentration for 30 min
Answer each item with its documented inhibition at 5 µM.
Number in %, nothing else.

Exercise: State its inhibition at 5 µM on Mouse histone methyltransferase G9a (969-1263) (Mus musculus): `COc1cc2nc(N3CCCN(C)CC3)nc(NC3CCN(C(=O)CCCCCC(=O)NO)CC3)c2cc1OC`
Solution: 14.6

Exercise: State its inhibition at 5 µM on Mouse histone methyltransferase G9a (969-1263) (Mus musculus): `COc1ccc2c(NC3CCN(Cc4ccccc4)CC3)nc(NCCNC(=O)CCCCCCC(=O)NO)nc2c1`
Solution: 62

Exercise: State its inhibition at 5 µM on Mouse histone methyltransferase G9a (969-1263) (Mus musculus): `CN1CCCN(c2nc(NC3CCN(Cc4ccccc4)CC3)c3ccc(OCCCCCCC(=O)NO)cc3n2)CC1`
Solution: 17.9

Exercise: State its inhibition at 5 µM on Mouse histone methyltransferase G9a (969-1263) (Mus musculus): `COc1cc2nc(NCCNC(=O)CCCCC(=O)NO)nc(NC3CCN(C)CC3)c2cc1OC`
Solution: 26.6

Exercise: State its inhibition at 5 µM on Mouse histone methyltransferase G9a (969-1263) (Mus musculus): `COc1ccc2c(NCCNC(=O)CCCCCC(=O)NO)nc(N3CCCN(C)CC3)nc2c1`
Solution: 40.3

Exercise: State its inhibition at 5 µM on Mouse histone methyltransferase G9a (969-1263) (Mus musculus): COc1ccc2c(NC3CCN(C)CC3)nc(NCCNC(=O)CCCC(=O)NO)nc2c1 [Compound 16a]
Solution: 40.3

Exercise: State its inhibition at 5 µM on Mouse histone methyltransferase G9a (969-1263) (Mus musculus): `COc1cc2nc(NCCNC(=O)CCCCCC(=O)NO)nc(NC3CCN(Cc4ccccc4)CC3)c2cc1OC`
Solution: 38

Exercise: State its inhibition at 5 µM on Mouse histone methyltransferase G9a (969-1263) (Mus musculus): `COc1ccc2c(NCCNC(=O)CCCCCCC(=O)NO)nc(N3CCCN(C)CC3)nc2c1`
Solution: 22.8

Exercise: State its inhibition at 5 µM on Mouse histone methyltransferase G9a (969-1263) (Mus musculus): `COc1ccc2c(NC3CCN(Cc4ccccc4)CC3)nc(NCCNC(=O)CCCCCC(=O)NO)nc2c1`
Solution: 69.5

Exercise: State its inhibition at 5 µM on Mouse histone methyltransferase G9a (969-1263) (Mus musculus): `COc1cc2nc(NCCNC(=O)CCCCCC(=O)NO)nc(NC3CCN(C)CC3)c2cc1OC`
Solution: 65

Exercise: State its inhibition at 5 µM on Mouse histone methyltransferase G9a (969-1263) (Mus musculus): `COc1cc2nc(NCCNC(=O)CCCCC(=O)NO)nc(NC3CCN(C(C)C)CC3)c2cc1OC`
Solution: 50.6

Exercise: State its inhibition at 5 µM on Mouse histone methyltransferase G9a (969-1263) (Mus musculus): `COc1cc2nc(NCCNC(=O)CCCCCCC(=O)NO)nc(NC3CCN(C(C)C)CC3)c2cc1OC`
Solution: 11.2

Exercise: State its inhibition at 5 µM on Mouse histone methyltransferase G9a (969-1263) (Mus musculus): `COc1cc2nc(NCCNC(=O)CCCCCCC(=O)NO)nc(NC3CCN(C)CC3)c2cc1OC`
Solution: 27

Exercise: State its inhibition at 5 µM on Mouse histone methyltransferase G9a (969-1263) (Mus musculus): `COc1cc2c(NC3CCN(C(C)C)CC3)nc(N3CCCN(C)CC3)nc2cc1OCCCCCCC(=O)NO`
Solution: 35.6

Exercise: State its inhibition at 5 µM on Mouse histone methyltransferase G9a (969-1263) (Mus musculus): COc1ccc2c(NC3CCN(C)CC3)nc(NCCNC(=O)CCCCCC(=O)NO)nc2c1 [Compound 14a]
Solution: 29.7

Exercise: State its inhibition at 5 µM on Mouse histone methyltransferase G9a (969-1263) (Mus musculus): `COc1cc2nc(N3CCCN(C)CC3)nc(NC3CCN(C(=O)CCCCCCC(=O)NO)CC3)c2cc1OC`
Solution: 10.7
